Molecular target: Mu-type opioid receptor (Homo sapiens, UniProt P35372)
Sequence (P35372 whole entry): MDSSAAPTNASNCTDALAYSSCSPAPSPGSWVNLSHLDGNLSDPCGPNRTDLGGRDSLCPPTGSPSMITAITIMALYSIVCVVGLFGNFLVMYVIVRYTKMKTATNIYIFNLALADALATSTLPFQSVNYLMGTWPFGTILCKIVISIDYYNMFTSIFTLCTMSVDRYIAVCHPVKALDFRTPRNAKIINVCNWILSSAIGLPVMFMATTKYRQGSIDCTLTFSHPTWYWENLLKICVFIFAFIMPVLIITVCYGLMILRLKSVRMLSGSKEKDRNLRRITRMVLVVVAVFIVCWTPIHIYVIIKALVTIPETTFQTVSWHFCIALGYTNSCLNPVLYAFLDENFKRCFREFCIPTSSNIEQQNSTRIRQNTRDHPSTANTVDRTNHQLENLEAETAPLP
ASSAY ENDPOINT: Ki

QUERY: Please look up its Ki: `CCCn1c(=O)c2[nH]c(C3CCCC3)nc2n(CCC)c1=O`
RESULT: > 100 µM

###

Target: Adenosine receptor A1 (Homo sapiens)
Sequence (P30542 whole entry): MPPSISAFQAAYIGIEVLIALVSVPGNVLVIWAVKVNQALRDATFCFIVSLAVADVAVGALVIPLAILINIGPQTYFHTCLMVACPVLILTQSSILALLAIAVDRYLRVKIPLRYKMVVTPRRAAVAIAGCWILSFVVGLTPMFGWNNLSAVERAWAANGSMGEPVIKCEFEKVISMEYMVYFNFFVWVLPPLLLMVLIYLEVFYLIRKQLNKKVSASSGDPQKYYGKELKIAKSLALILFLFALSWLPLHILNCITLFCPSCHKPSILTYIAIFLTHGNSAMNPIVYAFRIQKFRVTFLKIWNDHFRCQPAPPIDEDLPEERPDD
ASSAY ENDPOINT: Ki

C[C@@H](NC(=O)[C@@H](N)Cc1ccc(O)cc1)C(=O)NCC(=O)N(C)[C@@H](Cc1ccccc1)C(=O)NCCO; > 100 µM

Now take the following molecule into account.
QUERY: Give the measured Ki of `C=CCN1CC[C@]23c4c5ccc(O)c4O[C@H]2C(=O)CC[C@@]3(O)[C@H]1C5` .
RESULT: > 50 µM
